SYSTEM_NAME: HLA-E (Homo sapiens, UniProt P13747)
Construct: [HLAE(hu)(22-305)]-Avitag]; made in house
Sequence (P13747 22-305): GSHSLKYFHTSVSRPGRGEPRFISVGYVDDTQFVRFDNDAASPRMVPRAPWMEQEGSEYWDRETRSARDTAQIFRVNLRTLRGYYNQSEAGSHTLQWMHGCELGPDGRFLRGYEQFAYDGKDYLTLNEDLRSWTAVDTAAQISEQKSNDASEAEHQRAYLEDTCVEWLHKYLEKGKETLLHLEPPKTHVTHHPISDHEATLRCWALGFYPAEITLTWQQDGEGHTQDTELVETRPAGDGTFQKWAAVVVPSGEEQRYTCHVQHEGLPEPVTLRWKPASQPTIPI
Sequence (P61769 21-119 partner): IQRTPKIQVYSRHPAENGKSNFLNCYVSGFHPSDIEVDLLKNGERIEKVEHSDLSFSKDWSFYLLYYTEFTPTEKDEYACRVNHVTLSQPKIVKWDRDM
PROCEDURE_SUMMARY: Cross-linking of electrophilic peptides with [HLA-E+VL9], covalently bound HLA-E by LC-MS
Type: binding
REPORTED_CONDITIONS: peptide in 10-fold excess with [HLA-E+VL9], 4 h at 37° C.
[ ]: non-standard residue; d: D form. The star is where a group is joined. mSF = 3-benzenesulfonyl fluoride, O=S(=O)(F)c1cccc(*)c1; hArg = N=C(N)NCCCC[C@H](N)C(=O)O; Cha = N[C@@H](CC1CCCCC1)C(=O)O; Nle = CCCC[C@H](N)C(=O)O; Mff = not defined here
MEASURED_ATTRIBUTE: amount of covalently bound (cross-linked) HLA-E (%)

SUBSTANCE	SYSTEM_NAME	UNIT_ANNOTATION	RECORDED_VALUE
NH2-Val-Met-Cys(mSF)-Pro-Arg-Thr-Leu-Phe-Leu-OH (H-VMC(mSF)PRTLFL-OH; SMILES CSCC[C@H](NC(=O)[C@@H](N)C(C)C)C(=O)N[C@@H](CSc1cccc(S(=O)(=O)F)c1)C(=O)N1CCC[C@H]1C(=O)N[C@@H](CCCNC(=N)N)C(=O)N[C@H](C(=O)N[C@@H](CC(C)C)C(=O)N[C@@H](Cc1ccccc1)C(=O)N[C@@H](CC(C)C)C(=O)O)[C@@H](C)O) [VL9—3Cys(mSF)]	HLA-E (Homo sapiens, UniProt P13747)	%	73
NH2-Val-Met-Ala-Pro-Arg-Thr-Leu-Cys(mSF)-Leu-OH (H-VMAPRTLC(mSF)L-OH; SMILES CSCC[C@H](NC(=O)[C@@H](N)C(C)C)C(=O)N[C@@H](C)C(=O)N1CCC[C@H]1C(=O)N[C@@H](CCCNC(=N)N)C(=O)N[C@H](C(=O)N[C@@H](CC(C)C)C(=O)N[C@@H](CSc1cccc(S(=O)(=O)F)c1)C(=O)N[C@@H](CC(C)C)C(=O)O)[C@@H](C)O) [VL9—8Cys(mSF)]	HLA-E (Homo sapiens, UniProt P13747)	%	87
NH2-hAr-Nle-hAr-Gln-Mff-Ala-Cha-Cys(mSF)-Leu-OH (H-[hArg][Nle][hArg]Q[Mff]A[Cha]C(mSF)L-OH; reading uncertain; also: printed as NH2-hAr-Nle-hAr-Gln-Mff-Ala-Cha-Cys(mSF)-Leu-OH) [B9_8Cys(mSF)]	HLA-E (Homo sapiens, UniProt P13747)	%	43
NH2-Val-Met-Ala-Pro-Arg-Thr-Cys(mSF)-Phe-Leu-OH (H-VMAPRTC(mSF)FL-OH; SMILES CSCC[C@H](NC(=O)[C@@H](N)C(C)C)C(=O)N[C@@H](C)C(=O)N1CCC[C@H]1C(=O)N[C@@H](CCCNC(=N)N)C(=O)N[C@H](C(=O)N[C@@H](CSc1cccc(S(=O)(=O)F)c1)C(=O)N[C@@H](Cc1ccccc1)C(=O)N[C@@H](CC(C)C)C(=O)O)[C@@H](C)O) [VL9—7Cys(mSF)]	HLA-E (Homo sapiens, UniProt P13747)	%	22
NH2-Val-Met-Ala-Cys(mSF)-Arg-Thr-Leu-Phe-Leu-OH (H-VMAC(mSF)RTLFL-OH; SMILES CSCC[C@H](NC(=O)[C@@H](N)C(C)C)C(=O)N[C@@H](C)C(=O)N[C@@H](CSc1cccc(S(=O)(=O)F)c1)C(=O)N[C@@H](CCCNC(=N)N)C(=O)N[C@H](C(=O)N[C@@H](CC(C)C)C(=O)N[C@@H](Cc1ccccc1)C(=O)N[C@@H](CC(C)C)C(=O)O)[C@@H](C)O) [VL9—4Cys(mSF)]	HLA-E (Homo sapiens, UniProt P13747)	%	36
